Numbers sourced from patent US20240417405A1.

Molecular target: menin/MLL (terbium chelate-labeled menin, FITC-MBM1 peptide) (Homo sapiens, UniProt O00255, T541A)
Construct: Menin (a.a 1-610-6xhis tag)
Sequence (O00255 with tags, fused parts or gaps T541A): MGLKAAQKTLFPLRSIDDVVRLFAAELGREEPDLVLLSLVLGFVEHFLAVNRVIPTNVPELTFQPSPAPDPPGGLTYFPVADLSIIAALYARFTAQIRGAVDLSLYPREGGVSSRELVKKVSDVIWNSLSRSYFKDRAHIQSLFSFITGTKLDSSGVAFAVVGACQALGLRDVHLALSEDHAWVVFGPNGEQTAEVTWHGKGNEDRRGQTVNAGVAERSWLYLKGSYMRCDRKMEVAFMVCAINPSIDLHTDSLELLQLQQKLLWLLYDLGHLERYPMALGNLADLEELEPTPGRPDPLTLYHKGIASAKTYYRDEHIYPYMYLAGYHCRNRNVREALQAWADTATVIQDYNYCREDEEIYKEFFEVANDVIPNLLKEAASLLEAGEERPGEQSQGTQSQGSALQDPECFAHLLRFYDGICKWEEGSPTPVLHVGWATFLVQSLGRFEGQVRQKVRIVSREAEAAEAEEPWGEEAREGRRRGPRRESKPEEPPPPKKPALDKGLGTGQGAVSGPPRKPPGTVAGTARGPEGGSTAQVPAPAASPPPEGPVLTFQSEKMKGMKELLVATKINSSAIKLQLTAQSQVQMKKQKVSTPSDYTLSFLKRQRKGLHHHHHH
Assay: Menin/MLL homogenous time-resolved fluorescence (HTRF) assay
Settings: 30 min incubation
IC50 vs 200 pM: less than gives 1; not less than gives 0.

These recorded examples may help you get a feel for the data.
Cc1ncc(-c2cc(F)ccc2Oc2nncnc2N2CCC3(C2)CN([C@@H](C(C)C)[C@H]2C[C@@H](N4C[C@H]5COC[C@H]5C4)C2)C3)c(C2CC2)n1 [Compound 396]; 1
CC(C)[C@@H](C1CC2(CCN2CC2COC2)C1)N1CC2(CCN(c3ncnnc3Oc3ccc(F)cc3-c3cncnc3C3CC3)C2)C1 (single isomer, unassigned) [Compound 158]; 0
CC(C)[C@H](C1CCN(CC2(O)CC2)CC1)N1CC2(CCN(c3ncnnc3Oc3ccc(F)cc3-c3cncnc3C3CC3)C2)C1 (single isomer, unassigned) [Compound 4]; 0
CC(C)[C@H]([C@H]1C[C@]2(COC(=O)N2)C1)N1CC2(CCN(c3ncnnc3Oc3ccc(F)cc3-c3cncnc3C3CC3)C2)C1 (single isomer, unassigned) [Compound 319]; 0
CC(=O)N1CCN([C@H]2C[C@@H]([C@@H](C(C)C)N3CC4(CCN(c5ncnnc5Oc5ccc(F)cc5-c5ncc(C#N)cc5C5CC5)C4)C3)C2)CC1 (single isomer, unassigned) [Compound 79]; 0
CC(=O)N1CCC12CN([C@H]1C[C@@H]([C@@H](C(C)C)N3CC4(CCN(c5ncnnc5Oc5ccc(F)cc5-c5cncnc5C5CC5)C4)C3)C1)C2 (single isomer, unassigned) [Compound 172]; 1

Now for a further compound.
(Q) Decide: IC50 of CC(C)[C@@H]([C@H]1C[C@@H](N2CCCCC2)C1)N1CC2(CCN(c3ncnnc3Oc3ccc(F)cc3-c3nnccc3C3CC3)C2)C1 (single isomer, unassigned) [Compound 250] strictly below 200 pM?
(A) 1

---

molecular target: menin/MLL (terbium chelate-labeled menin, FITC-MBM1 peptide) (Homo sapiens, UniProt O00255, T541A); construct: Menin (a.a 1-610-6xhis tag); assay: Menin/MLL homogenous time-resolved fluorescence (HTRF) assay; format: binding; settings: 30 min incubation
measurementName: pIC50
Notebook: values listed as pIC50 are -log10 of the concentration (mol/L).

CC(C)[C@@H]([C@H]1C[C@@H](N2CC3(CCCCO3)C2)C1)N1CC2(CCN(c3ncnnc3Oc3ccc(F)cc3-c3nnccc3C3CC3)C2)C1 (single isomer, unassigned); 10.00
Cc1cc(C2CC2)c(-c2cc(F)ccc2Oc2nncnc2N2CCC3(C2)CN([C@@H](C(C)C)[C@H]2C[C@H](N4C[C@@H]5[C@H](C4)[C@H]5C(=O)N(C)C)C2)C3)nn1; 9.28

(Q) For the compound CC(C)[C@H]([C@H]1C[C@@H](N2CC3(CNC(=O)O3)C2)C1)N1CC2(CCN(c3ncnnc3Oc3ccc(F)cc3-c3cncnc3C3CC3)C2)C1 (single isomer, unassigned) , what pIC50 is on record?
(A) 9.52

(Q) And the next one, CC(=O)N[C@H]1C[C@@H]([C@@H](C(C)C)N2CC3(CCN(c4ncnnc4Oc4ccc(F)cc4-c4nccnc4C4CC4)C3)C2)C1 (single isomer, unassigned) ?
(A) 9.70

(Q) And the next one, CC(C)[C@@H]([C@H]1C[C@@H](N2CCC(O)CC2)C1)N1CC2(CCN(c3ncnnc3Oc3ccc(F)cc3-c3cncnc3C3CC3)C2)C1 (single isomer, unassigned) ?
(A) 8.64

---

target: menin/MLL (terbium chelate-labeled menin, FITC-MBM1 peptide) (Homo sapiens, UniProt O00255, T541A); construct: Menin (a.a 1-610-6xhis tag); test: Menin/MLL homogenous time-resolved fluorescence (HTRF) assay; settings: 30 min incubation
IC50 vs 0.2 nM: less than gives yes (1); not less than gives no (0).

These recorded examples may help you get a feel for the data.
CC(C)[C@@H]([C@H]1C[C@@H](N2CC[C@@](C)(O)C2)C1)N1CC2(CCN(c3ncnnc3Oc3ccc(F)cc3-c3cnncc3C3CC3)C2)C1 (single isomer, unassigned) [Compound 114]; yes (1)
CC(C)C([C@H]1C[C@@H](NC(=O)C2CC2)C1)N1CC2(CCN(c3ncnnc3Oc3ccc(F)cc3-c3cccc(=O)n3C3CC3)C2)C1 (stereo partly shown) [Compound 189]; no (0)
CC(C)[C@H]([C@H]1C[C@@H](N2CCC3(CCCO3)C2)C1)N1CC2(CCN(c3ncnnc3Oc3ccc(F)cc3-c3nnccc3C3CC3)C2)C1 (single isomer, unassigned) [Compound 271]; no (0)
CC(C)[C@@H]([C@H]1C[C@@H](N2CC3(CCCO3)C2)C1)N1CC2(CCN(c3ncnnc3Oc3ccc(F)cc3-c3nnccc3C3CC3)C2)C1 (single isomer, unassigned) [Compound 265]; yes (1)

(Q) Decide: IC50 of CCC(=O)N[C@H]1C[C@@H]([C@@H](C(C)C)N2CC3(CCN(c4ncnnc4Oc4ccc(F)cc4-c4cncnc4C4CC4)C3)C2)C1 (single isomer, unassigned) [Compound 356] strictly below 0.2 nM?
(A) no (0)

(Q) And the next one, CCOC(=O)c1sc(N[C@H]2C[C@@H](C(C(C)C)N3CC4(CCN(c5ncnnc5Oc5ccc(F)cc5-c5cncnc5C5CC5)C4)C3)C2)nc1C (single isomer, unassigned) [Compound 483] ?
(A) yes (1)

(Q) And the next one, Cc1noc(C2CC2)c1-c1cc(F)ccc1Oc1nncnc1N1CCC2(C1)CN([C@H](C(C)C)[C@H]1C[C@@H](NC(=O)OC(C)(C)C)C1)C2 [Compound 504] ?
(A) no (0)

---

system: KO-52 cells; test: Proliferation assay, spheroid-like growth, KO-52 (MLL wildtype control cell line); assay type: cell-based, human; settings: Homo sapiens, 192 h, KO-52 control cells, 8 days, confluence as measure of spheroid size; read-out: spheroid assay_OneTime KO-52 IC50
measurementName: IC50

Examples with their reported IC50 follow.
CC(C)[C@H]([C@H]1C[C@@H](N2CCC(O)CC2)C1)N1CC2(CCN(c3ncnnc3Oc3ccc(F)cc3-c3cncnc3C3CC3)C2)C1 (single isomer, unassigned); 10.8 µM
CC(C)C([C@H]1C[C@@H](NC(=O)C2CC2)C1)N1CC2(CCN(c3ncnnc3Oc3ccc(F)cc3-c3cccc(=O)n3C3CC3)C2)C1 (some centres unmarked); > 15 µM
Fc1ccc(Oc2nncnc2N2CCC3(C2)CN([C@@H](C2CCN(CC4COC4)CC2)C24CC(C2)C4)C3)c(-c2cncnc2C2CC2)c1 (single isomer, unassigned); 7.65 µM
CS(=O)(=O)C1CCN([C@H]2C[C@@H]([C@@H](N3CC4(CCN(c5ncnnc5Oc5ccc(F)cc5-c5cncnc5C5CC5)C4)C3)C34CC(C3)C4)C2)CC1 (single isomer, unassigned); > 15 µM

Please find the next compound below.
(Q) Quick check: IC50 on KO-52 cells, item CC(C)[C@H]([C@H]1C[C@@H](N(C)C2CCOCC2)C1)N1CC2(CCN(c3ncnnc3Oc3ccc(F)cc3-c3cncnc3C3CC3)C2)C1 (single isomer, unassigned) ?
(A) 1.41 µM

---

system: MOLM14 cells; assay: Proliferation assay, spheroid-like growth, MOLM14 (MLL-AF9 rearranged); type: cell-based, human; details: Homo sapiens, MOLM-14, 192 h, 8 days, confluence as measure of spheroid size, read-out: spheroid assay_OneTime MOLM14 IC50
measurementName: IC50 (nM)
Unit nM implied. Number only.

CC(C)[C@@H]([C@H]1C[C@@H](N2CCC3(CCCO3)C2)C1)N1CC2(CCN(c3ncnnc3Oc3ccc(F)cc3-c3nnccc3C3CC3)C2)C1 (single isomer, unassigned); 2
CC(C)C([C@H]1C[C@@H](N2C[C@H]3COC[C@H]3C2)C1)N1CC2(CCN(c3ncnnc3Oc3ccc(F)cc3-c3cnc(C#N)nc3C3CC3)C2)C1 (stereo partly drawn); 3

Please find the next compound below.
(Q) For the compound CCOC(=O)c1coc(N[C@H]2C[C@@H]([C@@H](C(C)C)N3CC4(CCN(c5ncnnc5Oc5ccc(F)cc5-c5cncnc5C5CC5)C4)C3)C2)n1 (single isomer, unassigned) , what IC50 is on record?
(A) 6
